Dear all, this message contains Ki results, target or system Amine oxidase [flavin-containing] B (Homo sapiens, UniProt P27338).
Numbers only, in nM.

| test-smiles | Ki, nM |
| --- | --- |
| O=C(/C=C/C=C/c1ccc2c(c1)OCO2)OCc1ccccc1 | 75 |

Kindly consider the entry below.
### Prompt Could you please provide reported Ki for N#C/C(=C\C=C\c1ccc2c(c1)OCO2)C(=O)N1CCCCC1 ? Thanks!
### Response 20.6

###

- test-description: Chromatographic hydrophobicity index, log D of compound at 250 uM at pH 7.4 by HPLC analysis
- Assay type: physicochemical
- run-conditions: buffer
observable: chromatographic logD at 250 µM
Answers are plain numbers.

| molecule | chromatographic logD at 250 µM |
| --- | --- |
| O=C(/C=C/C=C/c1ccc2c(c1)OCO2)N1CCCCC1 [PIPERINE] | 2.39 |

Record chromatographic logD at 250 µM for all entries; do not skip any.
1. N#C/C(=C\C=C\c1ccc2c(c1)OCO2)C(=O)OCc1ccccc1
2. O=C(/C=C/C=C/c1ccc2c(c1)OCO2)OCc1ccccc1
3. N#C/C(=C\C=C\c1ccc2c(c1)OCO2)C(=O)OCCc1ccccc1

### Response
1. 3.61
2. 3.9
3. 3.82

Numbers sourced from ChEMBL document CHEMBL4312023.
